# Test Target: Urotensin-2 receptor (Homo sapiens)
# Assay Info: Agonist activity at human UT receptor expressed in HEK293 cells co-expressing beta-arrestin1-polycistronic BRET biosensor assessed as induction of beta-arrestin1 recruitment measured for 5 mins by luminescence detection based BRET assay relative to 10 uM URP
# Assay type: functional, cell-based
Quantity Measured: Emax (%)

Worked examples follow.
| Chemical Structure | Recorded Result |
| --- | --- |
| CC(C)[C@H](NC(=O)[C@@H]1CSSC[C@H](NC(=O)[C@H](C)N)C(=O)N[C@@H](Cc2ccc(-c3ccccc3)cc2)C(=O)N[C@@H](Cc2c[nH]c3ccccc23)C(=O)N[C@@H](CCCCN)C(=O)N[C@@H](Cc2ccc(O)cc2)C(=O)N1)C(=O)O | 76 |
| CC(C)[C@H](NC(=O)[C@@H]1CSSC[C@H](NC(=O)[C@H](C)N)C(=O)N[C@@H](Cc2ccc(C#Cc3ccccc3)cc2)C(=O)N[C@@H](Cc2c[nH]c3ccccc23)C(=O)N[C@@H](CCCCN)C(=O)N[C@@H](Cc2ccc(O)cc2)C(=O)N1)C(=O)O | 94 |
| CC(C)[C@H](NC(=O)[C@@H]1CSSC[C@H](NC(=O)[C@@H](C)N)C(=O)N[C@@H](Cc2ccc(I)cc2)C(=O)N[C@@H](Cc2c[nH]c3ccccc23)C(=O)N[C@@H](CCCCN)C(=O)N[C@@H](Cc2ccc(O)cc2)C(=O)N1)C(=O)O | 99 |
| CC(C)[C@H](NC(=O)[C@@H]1CSSC[C@H](NC(=O)[C@@H](N)CC(=O)O)C(=O)N[C@@H](Cc2ccc(I)cc2)C(=O)N[C@@H](Cc2c[nH]c3ccccc23)C(=O)N[C@@H](CCCCN)C(=O)N[C@@H](Cc2ccc(O)cc2)C(=O)N1)C(=O)O | 104 |
| CC(C)[C@H](NC(=O)[C@@H]1CSSC[C@H](NC(=O)[C@H](C)N)C(=O)N[C@@H](Cc2ccc(I)cc2)C(=O)N[C@@H](Cc2c[nH]c3ccccc23)C(=O)N[C@@H](CCCCN)C(=O)N[C@@H](Cc2ccc(O)cc2)C(=O)N1)C(=O)O | 101 |

a: CC(C)[C@H](NC(=O)[C@@H]1CSSC[C@H](NC(=O)[C@@H](C)N)C(=O)N[C@@H](Cc2ccc(C#Cc3ccccc3)cc2)C(=O)N[C@@H](Cc2c[nH]c3ccccc23)C(=O)N[C@@H](CCCCN)C(=O)N[C@@H](Cc2ccc(O)cc2)C(=O)N1)C(=O)O
b: CC(C)[C@H](NC(=O)[C@@H]1CSSC[C@H](NC(=O)[C@H](N)CC(=O)O)C(=O)N[C@@H](Cc2ccc(I)cc2)C(=O)N[C@@H](Cc2c[nH]c3ccccc23)C(=O)N[C@@H](CCCCN)C(=O)N[C@@H](Cc2ccc(O)cc2)C(=O)N1)C(=O)O
c: CC(C)[C@H](NC(=O)[C@@H]1CSSC[C@H](NC(=O)[C@@H](C)N)C(=O)N[C@@H](Cc2ccc(-c3ccccc3)cc2)C(=O)N[C@@H](Cc2c[nH]c3ccccc23)C(=O)N[C@@H](CCCCN)C(=O)N[C@@H](Cc2ccc(O)cc2)C(=O)N1)C(=O)O
I would appreciate it if you could sort these 3 compounds by Emax, starting from the smallest number. # format: label list in the order the request specifies
a, c, b

---

# Test Target: Urotensin-2 receptor (Homo sapiens)
# Assay Info: Bias factor, ratio of deltalog(Tau/KA) for agonist activity at human UT receptor expressed in HEK293 cells co-expressing G12-polycistronic BRET biosensor assessed as induction of G12 activation by luminescence detection based BRET assay to deltalog(Tau/KA) for agonist activity at human UT receptor expressed in HEK293 cells co-expressing beta-arrestin1-polycistronic BRET biosensor assessed as induction of beta-arrestin1 recruitment by luminescence detection based BRET assay
# Type: functional, cell-based
Quantity Measured: fold change (FC)

| Chemical Structure | Recorded Result |
| --- | --- |
| CC(C)[C@H](NC(=O)[C@@H]1CSSC[C@H](NC(=O)[C@H](C)N)C(=O)N[C@@H](Cc2ccccc2)C(=O)N[C@@H](Cc2c[nH]c3ccccc23)C(=O)N[C@@H](CCCCN)C(=O)N[C@@H](Cc2ccc(O)cc2)C(=O)N1)C(=O)O | 1 |

1: CC(C)[C@H](NC(=O)[C@@H]1CSSC[C@H](NC(=O)[C@@H](C)N)C(=O)N[C@@H](Cc2ccc(I)cc2)C(=O)N[C@@H](Cc2c[nH]c3ccccc23)C(=O)N[C@@H](CCCCN)C(=O)N[C@@H](Cc2ccc(O)cc2)C(=O)N1)C(=O)O
2: CC(C)[C@H](NC(=O)[C@@H]1CSSC[C@H](NC(=O)[C@@H](C)N)C(=O)N[C@@H](Cc2ccc(-c3ccccc3)cc2)C(=O)N[C@@H](Cc2c[nH]c3ccccc23)C(=O)N[C@@H](CCCCN)C(=O)N[C@@H](Cc2ccc(O)cc2)C(=O)N1)C(=O)O
3: CC(C)[C@H](NC(=O)[C@@H]1CSSC[C@H](NC(=O)[C@H](C)N)C(=O)N[C@@H](Cc2ccc(I)cc2)C(=O)N[C@@H](Cc2c[nH]c3ccccc23)C(=O)N[C@@H](CCCCN)C(=O)N[C@@H](Cc2ccc(O)cc2)C(=O)N1)C(=O)O
Order the records, beginning with the lowest fold change (FC) and ending with the highest. Please, when replying, give the labels in the order that was requested.
3, 1, 2

---

# Test Target: Urotensin-2 receptor (Rattus norvegicus, UniProt P49684)
# Sequence (P49684 whole entry): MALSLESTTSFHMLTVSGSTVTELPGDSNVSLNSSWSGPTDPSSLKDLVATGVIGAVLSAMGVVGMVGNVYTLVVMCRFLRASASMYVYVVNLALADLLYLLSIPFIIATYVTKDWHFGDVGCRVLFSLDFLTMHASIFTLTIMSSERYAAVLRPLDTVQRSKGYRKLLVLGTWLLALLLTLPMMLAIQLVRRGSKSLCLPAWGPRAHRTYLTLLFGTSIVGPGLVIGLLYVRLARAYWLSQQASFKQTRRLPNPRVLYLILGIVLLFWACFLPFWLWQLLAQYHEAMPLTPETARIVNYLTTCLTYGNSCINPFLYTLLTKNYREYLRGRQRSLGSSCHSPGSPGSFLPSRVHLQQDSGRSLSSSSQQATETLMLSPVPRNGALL
# Assay Info: Agonist activity at UT receptor in Sprague-Dawley rat thoracic aortic ring assessed as induction of contraction
pEC50: −log10 of the molar value.
Quantity Measured: pEC50

P: CC(C)[C@H](NC(=O)[C@@H]1CSSC[C@H](NC(=O)[C@H](C)N)C(=O)N[C@H](Cc2ccc(C#Cc3ccccc3)cc2)C(=O)N[C@@H](Cc2c[nH]c3ccccc23)C(=O)N[C@@H](CCCCN)C(=O)N[C@@H](Cc2ccc(O)cc2)C(=O)N1)C(=O)O
Q: CC(C)[C@H](NC(=O)[C@@H]1CSSC[C@H](NC(=O)[C@H](C)N)C(=O)N[C@H](Cc2ccc(I)cc2)C(=O)N[C@@H](Cc2c[nH]c3ccccc23)C(=O)N[C@@H](CCCCN)C(=O)N[C@@H](Cc2ccc(O)cc2)C(=O)N1)C(=O)O
Between P and Q , which one shows the smaller pEC50 number? Respond with the label that goes with your answer.
Q
(Q: 7.86, P: 8.87)

---

# Test Target: Urotensin-2 receptor (Homo sapiens) (UniProt Q9UKP6)
# Sequence (Q9UKP6 whole entry): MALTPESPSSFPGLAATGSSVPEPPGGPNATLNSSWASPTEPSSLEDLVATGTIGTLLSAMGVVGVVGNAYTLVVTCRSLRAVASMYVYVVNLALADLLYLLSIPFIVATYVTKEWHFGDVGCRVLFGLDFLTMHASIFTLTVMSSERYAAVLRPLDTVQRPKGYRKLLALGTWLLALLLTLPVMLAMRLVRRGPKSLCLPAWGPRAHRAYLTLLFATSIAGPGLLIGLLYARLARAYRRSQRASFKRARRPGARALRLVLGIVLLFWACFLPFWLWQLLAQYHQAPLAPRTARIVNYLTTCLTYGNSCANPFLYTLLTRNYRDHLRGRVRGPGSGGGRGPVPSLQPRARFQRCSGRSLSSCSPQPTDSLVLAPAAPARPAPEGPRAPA
# Assay Info: Selectivity index, change in deltalog(Tau/KA) for agonist activity at human UT receptor expressed in HEK293 cells co-expressing Gq-polycistronic BRET biosensor assessed as induction of Gq activation by luminescence detection based BRET assay to deltalog(Tau/KA) for agonist activity at human UT receptor expressed in HEK293 cells co-expressing beta-arrestin1-polycistronic BRET biosensor assessed as induction of beta-arrestin1 recruitment by luminescence detection based BRET assay
# Format: functional, cell-based
Quantity Measured: selectivity index, deltadeltalog(Tau/KA)

Some molecules with known selectivity index, deltadeltalog(Tau/KA) results, for comparison:
| Chemical Structure | selectivity index, deltadeltalog(Tau/KA) |
| --- | --- |
| CC(C)[C@H](NC(=O)[C@@H]1CSSC[C@H](NC(=O)[C@@H](C)N)C(=O)N[C@@H](Cc2ccc(I)cc2)C(=O)N[C@@H](Cc2c[nH]c3ccccc23)C(=O)N[C@@H](CCCCN)C(=O)N[C@@H](Cc2ccc(O)cc2)C(=O)N1)C(=O)O | -0.94 |
| CC(C)[C@H](NC(=O)[C@@H]1CSSC[C@H](NC(=O)[C@H](N)CC(=O)O)C(=O)N[C@@H](Cc2ccc(I)cc2)C(=O)N[C@@H](Cc2c[nH]c3ccccc23)C(=O)N[C@@H](CCCCN)C(=O)N[C@@H](Cc2ccc(O)cc2)C(=O)N1)C(=O)O | -0.73 |
| CC(C)[C@H](NC(=O)[C@@H]1CSSC[C@H](NC(=O)[C@@H](C)N)C(=O)N[C@@H](Cc2ccc(C#Cc3ccccc3)cc2)C(=O)N[C@@H](Cc2c[nH]c3ccccc23)C(=O)N[C@@H](CCCCN)C(=O)N[C@@H](Cc2ccc(O)cc2)C(=O)N1)C(=O)O | -0.34 |
| CC(C)[C@H](NC(=O)[C@@H]1CSSC[C@H](NC(=O)[C@H](C)N)C(=O)N[C@@H](Cc2ccc(-c3ccccc3)cc2)C(=O)N[C@@H](Cc2c[nH]c3ccccc23)C(=O)N[C@@H](CCCCN)C(=O)N[C@@H](Cc2ccc(O)cc2)C(=O)N1)C(=O)O | 0.45 |
| CC(C)[C@H](NC(=O)[C@@H]1CSSC[C@H](NC(=O)[C@@H](N)CC(=O)O)C(=O)N[C@@H](Cc2ccc(I)cc2)C(=O)N[C@@H](Cc2c[nH]c3ccccc23)C(=O)N[C@@H](CCCCN)C(=O)N[C@@H](Cc2ccc(O)cc2)C(=O)N1)C(=O)O | -0.1 |

P: CC(C)[C@H](NC(=O)[C@@H]1CSSC[C@H](NC(=O)[C@H](C)N)C(=O)N[C@@H](Cc2ccccc2)C(=O)N[C@@H](Cc2c[nH]c3ccccc23)C(=O)N[C@@H](CCCCN)C(=O)N[C@@H](Cc2ccc(O)cc2)C(=O)N1)C(=O)O
Q: CC(C)[C@H](NC(=O)[C@@H]1CSSC[C@H](NC(=O)[C@H](C)N)C(=O)N[C@@H](Cc2ccc(I)cc2)C(=O)N[C@@H](Cc2c[nH]c3ccccc23)C(=O)N[C@@H](CCCCN)C(=O)N[C@@H](Cc2ccc(O)cc2)C(=O)N1)C(=O)O
R: CC(C)[C@H](NC(=O)[C@@H]1CSSC[C@H](NC(=O)[C@H](C)N)C(=O)N[C@@H](Cc2ccc(C#Cc3ccccc3)cc2)C(=O)N[C@@H](Cc2c[nH]c3ccccc23)C(=O)N[C@@H](CCCCN)C(=O)N[C@@H](Cc2ccc(O)cc2)C(=O)N1)C(=O)O
List from greatest to least selectivity index, deltadeltalog(Tau/KA). Your task in answering is to list the labels in the requested order.
P, R, Q
(P: 0, R: -0.03, Q: -0.32)
